test: chemical genetic growth profiling, strain panel (AID 1159580);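 note: tested at 20 µM; growth read once vehicle control cultures reached saturation at 30 °C; 1 = growth at the plate median or of vehicle wells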; settings: S. cerevisiae deletion strains, growth OD, locus YCL061C, strain MRC1, stronger effect = lower value
Among all 5,500 compounds or so, about 2,000 (36%) were called active. Roughly 18% stayed inconclusive and do not appear here. The list shows a part of the results.
ASSAY METRIC: normalized growth
Enter a number only.

Please report normalized growth for the following compound: COC(=O)C(C)c1ccc(C(=O)c2cccs2)cc1 (stereo unspecified)
1.01

Please report normalized growth for the following compound: `O=C(CSCc1cccc2ccccc12)NNC(=O)c1ccc(F)cc1`
1

Please report normalized growth for the following compound: `Cc1cccc(C)c1NC1=NCCCS1`
1

Please report normalized growth for the following compound: `N[C@@H](CC(=O)N1CCn2c(nnc2C(F)(F)F)C1)Cc1cc(F)c(F)cc1F`
0.987

Please report normalized growth for the following compound: `Cc1ccc(Cl)c(Nc2ccccc2C(=O)O)c1Cl`
0.891

----------
assay: chemical genetic growth profiling, strain panel (AID 1159580); conditions: S. cerevisiae deletion strains, growth OD, locus YDR137W, strain rgp1
About 2,000 (36%) of roughly 5,500 compounds were called active. Another 18% or so got no clear call; they are omitted. Rule as the data show it: active = normalized growth mostly below about 0.91 (no sharp cut-off); inconclusive = no clear call, values can overlap the other calls; inactive = mostly above about 0.92. This is one part of the list.
Hi there, use one of these labels in your reply, thanks! active, inactive

Illustrative cases are given below, each with its answer.
COMPOUND	QUALITATIVE LABEL
O=c1cc[nH]c(=S)[nH]1	inactive
NC(=O)c1cccc(N)c1	inactive
C=C1C(=O)O[C@@H]2C3O[C@]3(C)CC/C=C(\C)CC[C@@H]12 (some centres not stated)	active
CC(C)(Oc1ccc(C2CC2(Cl)Cl)cc1)C(=O)O (configuration not stated)	inactive

Record lookup: outcome of this test for COC(=O)C(C)c1ccc(C(=O)c2cccs2)cc1 (configuration not stated) ?
inactive

Record lookup: outcome of this test for CC(C)NCC(O)c1cc(O)cc(O)c1 (configuration not stated) ?
inactive

Record lookup: outcome of this test for COC(=O)C(O)c1ccccc1 (configuration not stated) ?
inactive

----------
assay: chemical genetic growth profiling, strain panel (AID 1159580); conditions: S. cerevisiae deletion strains, growth OD, locus YKL048C, strain ELM1, stronger effect = lower value
The whole screen tested about 5,500 compounds, of which about 2,000 (36%) were called active. About 18% were inconclusive and are not listed. The list shows a part of the results.
Recorded normalized growth values for a group of compounds are listed next.
Enter a number only.

Solved cases below.
COMPOUND	normalized growth
O=C(Nc1ccc(Cl)cc1)OCCSc1nc2ccccc2s1	1.01
Cc1ccc(NNC(=O)c2c(C)noc2C)cc1Cl	0.916
Cc1ccc(NC(=O)c2ccccc2N=Cc2cc(Cl)cc(Cl)c2O)c(N=Cc2cc(Cl)cc(Cl)c2O)c1	0.422
Cc1ccc(NS(=O)(=O)c2ccc(Cl)cc2)c(N=Cc2cc(Cl)cc(Cl)c2O)c1	0.336
Cc1ccc(NS(=O)(=O)c2ccc(-c3csc(C)n3)s2)c(C)c1	0.957

Please report normalized growth for the following compound: OC(CN1CCN(c2nc3ccc(Cl)cc3s2)CC1)Cn1ccc2ccccc21 (centres undefined)
0.981

Please report normalized growth for the following compound: `Cc1nc(-c2ccc(S(=O)(=O)Nc3ccc(Br)cc3Cl)s2)cs1`
0.919

Please report normalized growth for the following compound: `Cc1cccc(NC(=S)NNC(=O)CSCc2cccc3ccccc23)c1`
0.991

Please report normalized growth for the following compound: `FC(F)(F)c1cccc(-n2c(CSCc3cccc4ccccc34)n[nH]c2=S)c1`
1

Please report normalized growth for the following compound: `O=C(NNc1ccc(I)cc1)c1cc(Cl)cc(Cl)c1`
0.889

Please report normalized growth for the following compound: `CC(=O)ON=C1c2cc([N+](=O)[O-])ccc2-c2ccc([N+](=O)[O-])cc21`
0.892

Please report normalized growth for the following compound: `OC(=Cc1nc2ccccc2nc1C=C(O)c1ccc(Cl)cc1)c1ccc(Cl)cc1`
0.868

Please report normalized growth for the following compound: `Cc1c(C(=O)N(Cc2ccccc2)Cc2cccs2)cnn1-c1ccc(Cl)cc1`
0.97

Please report normalized growth for the following compound: `Cc1onc(-c2c(Cl)cccc2Cl)c1C(=O)NNc1c(Cl)cccc1Cl`
0.981

Please report normalized growth for the following compound: `O=C(/C=C/Sc1nc2ccccc2s1)c1ccc(Cl)cc1`
0.958

Please report normalized growth for the following compound: `Cc1onc(-c2c(F)cccc2Cl)c1C(=O)ON=C1C2CC3CC(C2)CC1C3`
0.968

Please report normalized growth for the following compound: `S=c1[nH]nc(Nc2ccc(I)cc2)s1`
0.857

Please report normalized growth for the following compound: `Cc1onc(-c2c(Cl)cccc2Cl)c1C(=O)NC(C)(C)CC(C)(C)C`
0.982

Please report normalized growth for the following compound: O=[N+]([O-])c1ccc2oc(C(O)c3cccc(Cl)c3)cc2c1 (centres undefined)
0.93

----------
assay: chemical genetic growth profiling, strain panel (AID 1159580); details: S. cerevisiae deletion strains, growth OD, locus YCL029C, strain bik1, stronger effect = lower value
The whole screen tested about 5,500 compounds, of which about 2,000 (36%) were called active. Roughly 18% stayed inconclusive and do not appear here. This is one part of the list.
Recorded normalized growth values for a group of compounds are listed next.
Enter a number only.

Solved cases below.
COMPOUND	normalized growth
Cc1cccc(C)c1NC1=NCCCS1	0.974
C[C@@H]1C(=O)OC2[C@H](O)C34[C@@H]5OC(=O)[C@@]3(O[C@@H]3OC(=O)[C@H](O)[C@@]34[C@H](C(C)(C)C)[C@H]5O)[C@]21O (stereo partly specified)	1.02
O=C(O)CN(CC(=O)O)Cc1cc2c(-c3ccccc3C(=O)O)c3cc(CN(CC(=O)O)CC(=O)O)c(=O)cc-3oc2cc1O	1.02
NC(=O)c1cccc(N)c1	1
O=c1[nH]oc2c1CCNC2	0.97

Please report normalized growth for the following compound: `Clc1cccc(Cl)c1NC1=NCCN1`
1.02

----------
assay: chemical genetic growth profiling, strain panel (AID 1159580);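 note: tested at 20 µM; growth read once vehicle control cultures reached saturation at 30 °C; 1 = growth at the plate median or of vehicle wells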; details: S. cerevisiae deletion strains, growth OD, locus YJL154C, strain vps35, stronger effect = lower value
Screen size: about 5,500 compounds; about 2,000 (36%) were called active. About 18% were inconclusive and are not listed. The list shows a part of the results.
Recorded normalized growth values for a group of molecules are listed next.
Enter a number only.

MOLECULE	normalized growth
C=C1CCC2C(CC2(C)C)C(=O)CCC1O (stereo unspecified)	0.99
O=C1NC(=O)C(=O)C(=O)N1	0.985
COc1ccc2c(c1OC)C(=O)OC2[C@H]1c2c(cc3c(c2OC)OCO3)CCN1C (stereo partly specified)	1.02
C=CCSCC1Nc2cc(Cl)c(S(N)(=O)=O)cc2S(=O)(=O)N1 (stereo unspecified)	0.999
CC1(C)NC(=O)N(c2ccc([N+](=O)[O-])c(C(F)(F)F)c2)C1=O	0.988

Please report normalized growth for the following molecule: C=C1CCC2C(CC2(C)C)C(=C)CC/C1=N\O (stereo unspecified)
1

----------
experiment: chemical genetic growth profiling, strain panel (AID 1159580);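 note: tested at 20 µM; growth read once vehicle control cultures reached saturation at 30 °C; 1 = growth at the plate median or of vehicle wells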; conditions: S. cerevisiae deletion strains, growth OD, locus YDR001C, strain nth1, stronger effect = lower value
In all, about 5,500 compounds went through this assay and about 2,000 (36%) were called active. Not shown: some 18% with an inconclusive outcome. Some of the results follow.
// assign met if normalized growth falls strictly below 1, else not met (ties count as not met)

Illustrative cases are given below, each with its answer.
COMPOUND	QUALITATIVE LABEL
Cc1cc(NC(=O)C2=C(O)c3ccccc3S(=O)(=O)N2C)no1	met
CCCCOC(=O)c1ccc(N)cc1	met
Cc1c(S(=O)(=O)O)oc2c1C(=O)C(=O)c1c-2ccc2c1CCCC2(C)C	met
Cc1coc2c1C(=O)C(=O)c1c-2ccc2c1CCCC2(C)C	met
CN1C(C(=O)Nc2ccccn2)=C(O)c2ccccc2S1(=O)=O	met
O=C1OC2(c3ccc(O)cc3Oc3cc(O)ccc32)c2ccccc21	not met
C=C1C(=O)O[C@@H]2C[C@@]3(C)CCC[C@H](C)C3=C[C@H]12	met
CC(=O)OC1CCC2(C)C(=CC=C3C2CCC2(C)C3CCC2C(C)/C=C/C(C)C(C)C)C1(C)C (configuration not stated)	not met
O=C(O)c1ccccc1-c1c2cc(Br)c(=O)cc-2oc2[c]([Hg])c(O)c(Br)cc12	not met

Then there is this compound:
Is it true that normalized growth reported for CC(C)COCC(CN(Cc1ccccc1)c1ccccc1)N1CCCC1 (configuration not stated) is less than 1?
not met

----------
Recorded normalized growth values for a group of compounds are listed next.
assay: chemical genetic growth profiling, strain panel (AID 1159580);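 note: tested at 20 µM; growth read once vehicle control cultures reached saturation at 30 °C; 1 = growth at the plate median or of vehicle wells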; conditions: S. cerevisiae deletion strains, growth OD, locus YOL006C, strain TOP1, stronger effect = lower value
The campaign covered roughly 5,500 compounds. About 2,000 (36%) were called active. About 18% were inconclusive and are not listed. The list shows a part of the results.
Enter a number only.

Solved cases below.
COMPOUND	normalized growth
Cn1c(=O)c2[nH]cnc2n(C)c1=O	1.01
O=[N+]([O-])c1ccc(N2CCCN(C(=S)Nc3ccc(Cl)cc3Cl)CC2)nc1	0.831
CCOC(=O)[C@H](CCc1ccccc1)N[C@@H](C)C(=O)N1[C@H](C(=O)O)C[C@@H]2CCC[C@@H]21	1.03

Please report normalized growth for the following compound: COC(=O)[C@@H]1OC(=O)[C@H]2O[C@@]23[C@@]1(C)CCC1[C@@]2(C)CCC(=O)C(C)(C)C2C[C@@H](OC(C)=O)[C@]13C (stereo not given in full)
1.02
